Entries and their TGI
# Tested on: NCI/ADR-RES ovarian
# PROTOCOL_DESCRIPTION: NCI tumour cell line growth inhibition, 48 h

# count of solved cases: 10
Cc1ncc(COP(=O)(O)O)c(/C=C2\SC(=S)NC2=O)c1O ... > 100 µM
NCCSCCC(=O)O ... > 100 µM
Cc1cc(N(CCOS(C)(=O)=O)CCOS(C)(=O)=O)ccc1C(=O)O ... > 100 µM
CC(C)OC(=S)Nc1ccc(Cl)c(/C=N/OC(C)(C)C)c1 ... 16.8 µM
CS(=O)(=O)Nc1cccc(-c2ccc3ncnc(Nc4ccc(F)c(Cl)c4)c3c2)c1 ... 7.54 µM
Cc1nc(-c2cc3ccccc3oc2=O)cs1 ... > 100 µM
CC1(C)C=C(/C=N/Nc2ccccc2)C(C#N)=C(O)C1(C#N)C#N ... > 100 µM
Cc1ccc([N+](=O)[O-])c2c(NCCNC(=O)c3cc(C(=O)NCCNc4ccnc5c(C)ccc([N+](=O)[O-])c45)n(C)n3)ccnc12 ... > 100 µM
Cc1c([C@H](C)[C@@H]2NC[C@@H](C)C[C@H]2O)ccc2c1C[C@H]1[C@H]2CC=C2C[C@@H](O)CC[C@@]21C ... > 100 µM
Cn1c(=O)sc2cc(C(=S)N3CCCCC3)ccc21 ... > 100 µM

## Input Report TGI for C#Cc1cccc(Nc2nc(Cl)nc3cc(NC(=O)CCl)ccc23)c1 please.
## Output 13.6 µM

## Input Report TGI for CSc1nc2nc3c(nc2c(=O)n1C)C(=O)c1ccccc1C3=O please.
## Output 0.938 µM

## Input Report TGI for CCCCCCCCCCCCC(O)c1ccco1 (stereo unspecified) please.
## Output 30.8 µM
